test: NCI Yeast Anticancer Drug Screen. Data for the mlh1 rad18 strain (AID 175); conditions: S. cerevisiae mlh1 rad18 strain growth inhibition; at 50.0 µM; stronger effect = higher value
About 79,000 compounds went through this panel and 15% of them were active in at least one assay; those are over-represented in the sample as a whole.
Measured growth inhibition by item
Reply numerically in %, unit not repeated.

Please review the following examples before continuing.
>  <compound>
O=c1c2c(sc3ccccc13)CCC2

>  <growth inhibition / %>
-0.9

$$$$
>  <compound>
CC(=O)Nc1cc([N+](=O)[O-])ccc1CC(O)c1ccccc1 (stereo not given)

>  <growth inhibition / %>
-16.4

$$$$
>  <compound>
C/C(=N/OC1=CC(=O)CC(C)(C)C1)c1ccccc1

>  <growth inhibition / %>
0.6

$$$$
>  <compound>
O=C(CCC(=O)Oc1ccccc1)Oc1ccccc1

>  <growth inhibition / %>
13.7

$$$$
>  <compound>
CCOC1CSc2ccccc2C(c2ccccc2)=N1 (stereo not given)

>  <growth inhibition / %>
6.75

$$$$
>  <compound>
CCOC(=S)SCc1ccc([N+](=O)[O-])cc1

>  <growth inhibition / %>
16.9

$$$$
>  <compound>
Cc1ccc(NC(=S)NC(=O)c2ccccc2)cc1

>  <growth inhibition / %>
24.4

$$$$
>  <compound>
Cc1ccccc1NC(=S)N1CCOCC1

>  <growth inhibition / %>
-6.35

$$$$
>  <compound>
COc1ccc2c(c1)C(=O)[C@@](Nc1ccc(C=O)cc1)(OC)[C@@](OC)(c1ccc([N+](=O)[O-])cc1)O2

>  <growth inhibition / %>
12.4

$$$$
>  <compound>
CCN(/N=C1\CC2C=CCN(C2)C(=O)Cc2c1[nH]c1ccccc21)S(=O)(=O)c1ccc(C)cc1 (stereo not given)

>  <growth inhibition / %>
19.4

$$$$

// query growth inhibition value for entry Nc1ccccc1N -0.35

Ok, now N#Cc1nc(C2CCC2)oc1N -41.5

Ok, now Cc1ccsc1C(=O)c1ccccc1[N+](=O)[O-] 6.25
